Reference for the values: ChEMBL document CHEMBL5518212

- test: Cmax in Sprague-Dawley rat at 2 mg/kg, iv measured upto 8 hrs by LC-MS/MS analysis
- Assay type: ADME, organism-based
- run-conditions: in vivo
outcome-measure: Cmax

Query C[C@@H](N)C(=O)Nc1ccc(-c2ccco2)cc1.Cl yields Cmax of 292 ng/mL

###

- test: Cmax in Sprague-Dawley rat at 10 mg/kg, po measured upto 8 hrs by LC-MS/MS analysis
- Assay type: ADME, organism-based
- run-conditions: in vivo
outcome-measure: Cmax (µg/mL)
Use µg/mL as the unit, but write only the number.

Query C[C@@H](N)C(=O)Nc1ccc(-c2ccco2)cc1.Cl yields Cmax of 0.154

###

Entries and their solubility
- test: Solubility of the compound at pH 2
- Assay type: physicochemical
- run-conditions: buffer
Units required after the number.

>  <structure-notation>
C[C@@H](N)C(=O)Nc1ccc(-c2ccco2)cc1

>  <solubility>
390 µg/mL

$$$$

Moving on to another compound below.
Query C[C@@H](N)C(=O)Nc1ccc(-c2ccco2)cc1.Cl yields solubility of 8640 µg/mL

###

- test: Half-life in Sprague-Dawley rat at 10 mg/kg, po measured upto 8 hrs by LC-MS/MS analysis
- Assay type: ADME, organism-based
- run-conditions: in vivo
outcome-measure: half-life (h)
Use h as the unit, but write only the number.

Query C[C@@H](N)C(=O)Nc1ccc(-c2ccco2)cc1.Cl yields half-life of 2.31

###

- test: AUC(0 to t) in Sprague-Dawley rat at 10 mg/kg, po measured upto 8 hrs by LC-MS/MS analysis
- Assay type: ADME, organism-based
- run-conditions: in vivo
outcome-measure: AUC(0-t) at 8 h (ng·h/mL)
Use ng·h/mL as the unit, but write only the number.

Query C[C@@H](N)C(=O)Nc1ccc(-c2ccco2)cc1.Cl yields AUC(0-t) at 8 h of 627

###

- test: AUC(0 to infinity) in Sprague-Dawley rat at 2 mg/kg, iv measured upto 8 hrs by LC-MS/MS analysis
- Assay type: ADME, organism-based
- run-conditions: in vivo
outcome-measure: AUC(0-inf) (ng·h/mL)
Use ng·h/mL as the unit, but write only the number.

Query C[C@@H](N)C(=O)Nc1ccc(-c2ccco2)cc1.Cl yields AUC(0-inf) of 327

###

- test: Clearance in Sprague-Dawley rat at 2 mg/kg, iv measured upto 8 hrs by LC-MS/MS analysis
- Format: ADME, organism-based
- run-conditions: in vivo
outcome-measure: clearance (mL/min/kg)
Use mL/min/kg as the unit, but write only the number.

Query C[C@@H](N)C(=O)Nc1ccc(-c2ccco2)cc1.Cl yields clearance of 104

###

- test: Oral bioavailability in Sprague-Dawley rat at 10 mg/kg measured upto 8 hrs by LC-MS/MS analysis
- Assay type: ADME, organism-based
- run-conditions: in vivo
outcome-measure: bioavailability

Query C[C@@H](N)C(=O)Nc1ccc(-c2ccco2)cc1.Cl yields bioavailability of 39%

###

- target: UniProt:Q96RJ0
- Sequence (Q96RJ0 whole entry): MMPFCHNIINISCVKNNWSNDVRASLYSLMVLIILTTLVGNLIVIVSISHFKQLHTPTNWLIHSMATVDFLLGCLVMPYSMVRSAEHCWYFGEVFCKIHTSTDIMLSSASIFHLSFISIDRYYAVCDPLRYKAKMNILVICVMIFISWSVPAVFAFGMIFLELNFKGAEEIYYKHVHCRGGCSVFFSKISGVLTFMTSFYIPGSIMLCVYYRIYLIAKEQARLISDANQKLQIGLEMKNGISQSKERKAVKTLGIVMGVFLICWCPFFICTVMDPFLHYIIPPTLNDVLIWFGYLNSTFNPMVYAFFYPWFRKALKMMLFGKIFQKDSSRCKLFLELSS
- test: Agonist activity at Gs-mediated TAAR1 activation (unknown origin) expressed in HEK293 cells pretreated with coelenterazine for 30 mins followed by compound addition by BRET assay
- Type: functional, cell-based
Entries and their pEC50
As a rule, pEC50 stands for the negative log10 of the concentration, concentration in M.

Some solved entries appear below for comparison.
>  <structure-notation>
NCc1ccc(-c2ccccc2)cc1

>  <target>
UniProt:Q96RJ0

>  <endpoint-result>
6.52

$$$$
>  <structure-notation>
NCCc1ccc(-c2cccc(F)c2)cc1

>  <target>
UniProt:Q96RJ0

>  <endpoint-result>
8.93

$$$$
>  <structure-notation>
NCCc1ccc(Br)cc1

>  <target>
UniProt:Q96RJ0

>  <endpoint-result>
8.01

$$$$

The reported pEC50 value, UniProt:Q96RJ0, for CN(C)Cc1ccc(-c2ccccc2)cc1 reads 8.02

###

- test: Half-life in Sprague-Dawley rat at 2 mg/kg, iv measured upto 8 hrs by LC-MS/MS analysis
- Assay type: ADME, organism-based
- run-conditions: in vivo
outcome-measure: half-life

Query C[C@@H](N)C(=O)Nc1ccc(-c2ccco2)cc1.Cl yields half-life of 1.23 h

###

- test: AUC(0 to t) in Sprague-Dawley rat at 2 mg/kg, iv measured upto 8 hrs by LC-MS/MS analysis
- Assay type: ADME, organism-based
- run-conditions: in vivo
outcome-measure: AUC(0-t) at 8 h (ng·h/mL)
Use ng·h/mL as the unit, but write only the number.

Query C[C@@H](N)C(=O)Nc1ccc(-c2ccco2)cc1.Cl yields AUC(0-t) at 8 h of 323

###

- test: AUC(0 to infinity) in Sprague-Dawley rat at 10 mg/kg, po measured upto 8 hrs by LC-MS/MS analysis
- Assay type: ADME, organism-based
- run-conditions: in vivo
outcome-measure: AUC(0-inf) (ng·h/mL)
Use ng·h/mL as the unit, but write only the number.

Query C[C@@H](N)C(=O)Nc1ccc(-c2ccco2)cc1.Cl yields AUC(0-inf) of 634

###

- test: Tmax in Sprague-Dawley rat at 2 mg/kg, iv measured upto 8 hrs by LC-MS/MS analysis
- Format: ADME, organism-based
- run-conditions: in vivo
outcome-measure: Tmax
Units required after the number.

Query C[C@@H](N)C(=O)Nc1ccc(-c2ccco2)cc1.Cl yields Tmax of 1.8 min
